# pIC50 annotations
- Tested on: 292921-168-R-J2-PDC KRAS tumor spheroid viability
- Protocol details: Anticancer human tumor 292921-168-R-J2-PDC patient-derived pancreatic carcinoma cell line growth inhibition [KRAS2]
- Condition notes: curve of first compound; second compound 3.16 µM; spheroids with HUVEC and MSC
pIC50: −log10 of the molar value.

| Compound | pIC50 |
| --- | --- |
| CC(=O)Nc1cccc(-n2c(=O)n(C3CC3)c(=O)c3c(Nc4ccc(I)cc4F)n(C)c(=O)c(C)c32)c1 + CNCc1ccccc1-c1csc(C(C)Nc2nc(C)nc3cc(OC)c(OC)cc23)c1 | > 10.00 |
| CC1(C)CCC(CN2CCN(c3ccc(C(=O)NS(=O)(=O)c4ccc(NCC5CCOCC5)c([N+](=O)[O-])c4)c(Oc4cnc5[nH]ccc5c4)c3)CC2)=C(c2ccc(Cl)cc2)C1 + C=CC(=O)N1CCN(c2nc(OCC3CCCN3C)nc3c2CCN(c2cccc4cccc(C)c24)C3)CC1CC#N | > 7.50 |
| CC1COCCN1c1cc(-c2ccnn2C)c2ccnc(-c3ccn[nH]3)c2n1 (stereo unspecified) + CNCc1ccccc1-c1csc(C(C)Nc2nc(C)nc3cc(OC)c(OC)cc23)c1 | > 8.00 |
| CC(=O)OC12COC1CC(O)C1(C)C(=O)C(O)C3=C(C)C(OC(=O)C(O)C(NC(=O)OC(C)(C)C)c4ccccc4)CC(O)(C(OC(=O)c4ccccc4)C21)C3(C)C (stereo unspecified) + CC1OCC2(CCN(c3cnc(Sc4ccnc(N)c4Cl)c(N)n3)CC2)C1N | > 8.00 |
| Cn1nccc1Nc1nccc(-c2cc3c(s2)C(C)(C)N(CCN2CCOCC2)C3=O)n1 + C=CC(=O)N1CCN(c2nc(OCC3CCCN3C)nc3c2CCN(c2cccc4cccc(C)c24)C3)CC1CC#N | > 7.50 |
| CC1COCCN1c1cc(-c2ccnn2C)c2ccnc(-c3ccn[nH]3)c2n1 (stereo unspecified) + CC1OCC2(CCN(c3cnc(Sc4ccnc(N)c4Cl)c(N)n3)CC2)C1N | > 8.00 |

====

This listing pairs compounds with measured viability, T/C.
- Tested on: 292921-168-R-J2-PDC KRAS tumor spheroid viability
- Protocol details: Anticancer human tumor 292921-168-R-J2-PDC cell line growth inhibition [KRAS2];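 further: drug exposure lasted seven days after spheroids formed for three days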;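 on viability, T/C: percent of DMSO vehicle control viability which is 100%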
- Condition notes: second compound 1 µM; first compound 0.1 µM; stronger effect = lower value; spheroids with HUVEC and MSC

| Compound | viability, T/C [%] |
| --- | --- |
| COc1cc(Nc2ncc3c(n2)-c2ccc(Cl)cc2C(c2c(F)cccc2OC)=NC3)ccc1C(=O)O + CNCc1ccccc1-c1csc(C(C)Nc2nc(C)nc3cc(OC)c(OC)cc23)c1 | 19.1 |
| CC1OCC2(CCN(c3cnc(Sc4ccnc(N)c4Cl)c(N)n3)CC2)C1N (centres undefined) + CNCc1ccccc1-c1csc(C(C)Nc2nc(C)nc3cc(OC)c(OC)cc23)c1 | 43.2 |
| Cn1ncnc1[C@H]1c2n[nH]c(=O)c3cc(F)cc(c23)N[C@@H]1c1ccc(F)cc1 + CNCc1ccccc1-c1csc(C(C)Nc2nc(C)nc3cc(OC)c(OC)cc23)c1 | 41.4 |
| Cn1nccc1Nc1nccc(-c2cc3c(s2)C(C)(C)N(CCN2CCOCC2)C3=O)n1 + CC1OCC2(CCN(c3cnc(Sc4ccnc(N)c4Cl)c(N)n3)CC2)C1N | 21 |
